assay: Nonclinical pharmacokinetics in cynomolgus monkeys; settings: female, cynomolgus monkey, in vivo, iv, 33.3 ng/kg/min, cyno IV infusion 3 hours, F, 33.3 ng/kg/min; read-out: t1/2 alpha
measured parameter: half-life (min)
Quick note: give the figure in min, leave out the unit.

Sample H-TKFTLSLDVPTNIMNLLFNIAKAKNLRAQAAANAHLMAQI-NH2 [SEQ ID NO: 1] ; half-life observed: 4

* * *

test: Human pharmacokinetics, heart failure subjects, 7.5-hour continuous ascending dose IV infusion; details: in vivo, infusion rate 9/18/36 ng/kg/min, mean, N = 3
measured parameter: Cmax (ng/mL)
Provide the reading as a plain figure in ng/mL.

H-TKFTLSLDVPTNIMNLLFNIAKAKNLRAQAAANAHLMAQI-NH2 [SEQ ID NO: 1] has a reported Cmax of 5.52
